Value source: patent US20240309012A1

Below is a list of entries, each paired with its recorded EC50 value.
# System: 2019 novel coronavirus (SARS-CoV-2)
# TEST_NAME: Inhibition of 2019 novel coronavirus (SARS-CoV-2) replication in Vero E6 cells, virus copy number by qRT-PCR
# Assay type: cell-based
# ASSAY_CONTEXT: Severe acute respiratory syndrome coronavirus 2, Vero C1008; Vero E6 cells, MOI 0.01, 24 h p.i., qRT-PCR of supernatant
EXPERIMENTAL_ENDPOINT: EC50 (nM)

MOLECULE	UNITS	MEASUREMENT
COc1cc2c3cc1Oc1c(OC)c(OC)cc4c1[C@@H](Cc1ccc(C(C)O)c(c1)Oc1ccc(cc1)C[C@@H]3N(C)CC2)N(C)CC4 (some centres unmarked)	nM	1020
COc1cc2c3cc1Oc1c(OC)c(OC)cc4c1[C@@H](Cc1ccc(C(=O)NC5CCCC5)c(c1)Oc1ccc(cc1)C[C@@H]3N(C)CC2)N(C)CC4	nM	2400
COc1cc2c3cc1Oc1c(OC)c(OC)cc4c1[C@@H](Cc1cccc(c1)Oc1ccc(cc1)C[C@@H]3N(C)CC2)N(C)CC4	nM	930
